A collection of binders and their measured Kd
assay.target: T1, Puf5p RNA-binding domain (Saccharomyces cerevisiae, UniProt P39016 201-600)
T1 sequence: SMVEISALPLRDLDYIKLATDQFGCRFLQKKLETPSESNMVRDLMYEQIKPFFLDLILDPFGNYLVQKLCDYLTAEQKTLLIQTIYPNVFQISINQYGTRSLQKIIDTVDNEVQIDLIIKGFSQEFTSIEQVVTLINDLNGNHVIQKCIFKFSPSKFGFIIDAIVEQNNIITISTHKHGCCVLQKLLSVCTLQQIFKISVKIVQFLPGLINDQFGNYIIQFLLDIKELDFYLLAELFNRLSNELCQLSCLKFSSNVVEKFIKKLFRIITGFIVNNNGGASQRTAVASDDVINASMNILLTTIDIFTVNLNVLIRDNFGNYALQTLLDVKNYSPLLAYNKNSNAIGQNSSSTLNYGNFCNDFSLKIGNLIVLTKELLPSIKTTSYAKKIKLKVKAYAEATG
measurement.description: EMSA; EMSA: 10 mM HEPES pH 7.4, 50 mM NaCl, 1 mM EDTA, 0.1 mg/ml BSA, 0.01% Tween 20, 0.1 mg/ml yeast tRNA, 100 pM RNA, overnight at 4 C
Reply with just the number (in nM).

Solved entries (count: 4):
binder | Kd (nM)
UGUAAUGAUUA (ssRNA) [AAT2 (11)] | 345
UGUAUAUA (ssRNA) [NRE (8)] | 3200
UGUAUUUGUA (ssRNA) [MFA2 (10)] | 179
UGUAACUUUUUA (ssRNA) [AMN1 (12)] | 106

For record UGUACUAUA (ssRNA) [SMX2 (9)] the listed Kd is 28.4
